Where do the numbers come from? From PubChem BioAssay (NCI).

# System: NCI-H522 lung
# Experiment description: NCI tumour cell line growth inhibition, 48 h

Compound: COC(=O)C(/C(=N/N)C(=O)Nc1cc(Cl)c(Cl)cc1Cl)c1nc2ccc(Cl)cc2[nH]c1=O (centres undefined)
Comparator: >
TGI (µM): 100

Compound: Cc1cn(CC2=NCC(C)(C)CN2)c(=O)[nH]c1=O
Comparator: >
TGI (µM): 100

Compound: CN(C)c1nc(N(C)C)n2nc(-c3ccccc3[N+](=O)[O-])nc2n1
Comparator: >
TGI (µM): 100

Compound: CCOC(OCC)c1ccc(/C=C/c2cc(OC)c(OC)c(OC)c2)cc1
Comparator: >
TGI (µM): 100

Compound: CN(/N=C/c1ccnc2ccccc12)c1ccc([N+](=O)[O-])cc1[N+](=O)[O-]
Comparator: >
TGI (µM): 100

Compound: c1ccc([C@@H]2N[C@@]3(CO[Si](c4ccccc4)(c4ccccc4)c4ccccc4)CC[C@H]4CN[C@@H]2[C@H]43)cc1
Comparator: =
TGI (µM): 16.1

Compound: O=C(O)C(Br)C(Br)c1ccccc1[N+](=O)[O-] (centres undefined)
Comparator: >
TGI (µM): 100

Compound: Cn1c(=O)c2c(nc(C[N+]3([O-])CCOCC3)n2C)n(C)c1=O
Comparator: >
TGI (µM): 100

Compound: COc1ccc(NC(=O)Nc2ccc(Nc3nc(C)cc(Nc4ccc(C)cc4)n3)cc2)cc1
Comparator: =
TGI (µM): 4.42

Compound: CCC(CC)C(=O)OC[n+]1cccc(-c2c(COC(=O)NC(C)C)c(COC(=O)NC(C)C)c3n2CCC3)c1
Comparator: >
TGI (µM): 100

Compound: Cc1ccc(C2SCc3nc4ccc(C(=O)c5ccccc5)cc4n32)cc1 (centres undefined)
Comparator: =
TGI (µM): 38.2

Compound: CC(=O)c1c(O)ccc2c1CC(CC=O)O2 (centres undefined)
Comparator: >
TGI (µM): 100

Compound: Cc1c2ncccc2nc2[nH]c3ccc(OCCN(C)C)cc3c12
Comparator: =
TGI (µM): 15.9

Compound: Cc1ccccc1-n1c(/C=C\c2ccccn2)nc2ccccc2c1=O
Comparator: =
TGI (µM): 39.1

Compound: C[n+]1cccc(/C=C/c2ccc3cccc(O)c3n2)c1
Comparator: =
TGI (µM): 92.6

Compound: COc1ccc2c(c1)N(C(C)=O)CN1C(=O)CCC21 (centres undefined)
Comparator: >
TGI (µM): 100

Compound: C#CCOc1ccc2ncnc(Nc3ccc(NC(=O)CCl)cc3)c2c1
Comparator: =
TGI (µM): 4.27

Compound: CC(=O)NCC1(c2ccccc2)CCN(CC2COc3ccccc3O2)CC1 (centres undefined)
Comparator: >
TGI (µM): 100

Compound: COc1ccc2c(c1OC)-c1c(c3ccc([N+](=O)[O-])cc3c(=O)n1CCCN=[N+]=[N-])C2=O
Comparator: =
TGI (µM): 51.7

Compound: CS(=O)c1ccc(-c2nc(-c3ccc(F)cc3)c(-c3ccncc3)[nH]2)cc1 (centres undefined)
Comparator: >
TGI (µM): 85.6

Compound: O=C1C=CN(C2OC(CO)C(O)C2O)C(=O)C1 (centres undefined)
Comparator: >
TGI (µM): 2320

Compound: O=C(O)c1cc(-c2ccccc2O)nc2ccccc12
Comparator: >
TGI (µM): 100

Compound: COc1cc(OC)c(OC)cc1/C=C1\C=Cc2ccccc21
Comparator: =
TGI (µM): 51.2

Compound: CCOC(=O)N1C/C(=C/c2ccc(OC)cc2)C(=O)/C(=C/c2ccc(OC)cc2)C1
Comparator: =
TGI (µM): 11.1
